For each of the sequences below, state its protein stability index.
- assay-procedure: protein stability index of a GFP-peptide fusion (yeast GPS) (PSI 1-4); higher = more stable; sorted into four equal gates, so the index is relative within each strain
- condition-parameters: san1∆

Use the examples below as a reference point.
>>> df
           monomer_sequence  result
0  VKFYEIFNFDQLVEITE [SRB8]    1.58
1  LNEITNSKVNKLNIETM [DSN1]    2.54
2  LVTAGVAAAGITASTLL [CYT1]    1.62
3  FLNTPNNNINENELFND [SSN2]    2.86
4  LNARMFLKYYGAHKFLD [SIR2]    1.21
5  VSNPGDNPPPADNGEEY [MED2]    3.13

// each listed sequence needs a value for protein stability index
1. PEDALVNDFSDITSDQL [SMC3]
2. FKSVLPIVLLNTLRKCY [UBP6]
3. AHMANPLLRKVVDRESD [PRE4]
4. NTTKTADTKAPTFTFGS [YLR335W/NUP2]
5. IKNGRIYFTVPNEFEIQ [RGR1]
6. LTSTKVKQLENVSSNIV [RPS20]
7. NVHGSLEPFLLMLEDTD [BRR2]
8. GRVKYTKRQKHFAWLPT [POP1]

[3.15, 1.12, 1.13, 3.21, 2.45, 2.65, 2.87, 2.3]

# get_value(readout='protein stability index', item= EIEMKNKLEKLNSLLTY [SMC4] )
1.85

====

- assay-procedure: protein stability index of a GFP-peptide fusion (yeast GPS) (PSI 1-4); higher = more stable; sorted into four equal gates, so the index is relative within each strain
- condition-parameters: ubr1∆
Kindly supply the reported protein stability index values for the records listed here.
Answers are plain numbers.

Below: 5 sequences and their reported protein stability index.
>>> df
                     monomer_sequence  quantitative_readout
0  GWSLVGRILQNLLHSYM [YML103C/NUP188]                  1.05
1            ISNLTQEQVQDYVNKTN [FAS1]                  2.27
2            KEAVFKSLGVKSLGGGA [FAS2]                  3.41
3  HESTSRTDQYTIDNIDS [YMR129W/POM152]                  2.86
4            AKPDARTQAGDIVSIDI [MTW1]                  3.64

Hi team, please reply with protein stability index for each item in this list.
1. LLEETQAKLKKNVETLE [SMC4]
2. EHGLQITHTENYNDLIV [BRN1]
3. SSNTNNNTNNNNTNTGA [SWI1]
4. TAVNGIDTDLFGAPNNP [YGL172W/NUP49]
5. SQDATKVDATPEESKPI [YLR335W/NUP2]
6. FQDYLTQQAVNLEKNYL [IRR1]

1. 3.51
2. 2.77
3. 3.33
4. 3.19
5. 3.18
6. 1.96

I'm hoping you can list protein stability index for every sequence here, please.
1. LSKVSLLTPDIGAVYSG [PRE8]
2. GGNFKDLSTLVHSSSPS [GAL11]
3. SFTLLNQLSQTNKLLFK [NUT1]

[2.07, 1.38, 2.33]

The measured values listed here are drawn from the supplement of paper PMC9732359.
